subject of test: T1, human CD30 expressed on the cell surface (human, UniProt P28908 19-595)
T1 chain: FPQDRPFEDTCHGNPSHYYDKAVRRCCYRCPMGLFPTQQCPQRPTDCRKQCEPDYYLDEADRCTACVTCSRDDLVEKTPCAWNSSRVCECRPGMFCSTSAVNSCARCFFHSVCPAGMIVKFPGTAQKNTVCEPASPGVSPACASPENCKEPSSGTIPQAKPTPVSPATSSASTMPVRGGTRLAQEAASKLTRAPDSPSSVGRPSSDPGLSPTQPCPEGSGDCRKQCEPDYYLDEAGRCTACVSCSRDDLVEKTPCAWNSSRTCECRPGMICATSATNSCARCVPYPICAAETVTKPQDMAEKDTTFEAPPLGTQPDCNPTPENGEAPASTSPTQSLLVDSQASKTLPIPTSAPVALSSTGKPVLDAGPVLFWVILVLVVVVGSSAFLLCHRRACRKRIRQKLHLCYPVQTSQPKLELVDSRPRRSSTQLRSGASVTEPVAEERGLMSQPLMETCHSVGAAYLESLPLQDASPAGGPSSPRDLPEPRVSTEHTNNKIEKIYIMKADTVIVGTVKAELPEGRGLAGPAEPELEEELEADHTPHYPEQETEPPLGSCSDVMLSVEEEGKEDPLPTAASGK
method description: SPR; CD30 immobilized on CM5 chip, antibody as analyte
Assignment: determine reported Ka for the given binders.
Put your answer as a value accompanied by its unit after it.

Query: Quote Ka reported for 8D10 (antibody, V domains shown) VH: QVQLQESGTELVKPGASVKLSCKASGYTFTSYWMHWMKQRPGQGLEWIGNINPSNGGTNYNEKFKNKATLTVDKSSSTAYMQLSSLTSEDSAVYYCARRDYYYGSSYGFDVWGTGTTVTVSS VL: DIVMTQSPASQSASLGESVTITCLASQTIGTWLAWYQQKPGKSPQFLIYAATSLADGVPSRFSGSGSGTKFSFKISSLQAEDFVSYYCQQLYSTPFTFGGGTKLEIK please.
Reply: 1.69e+10 M⁻¹

Query: Tell me measured Ka for 15B8 (antibody, V domains shown) VH: QVQLEQSGTELVKPGASVKLSCKASGYTFTSYWMHWVKQRPGQGLEWIGNINPSNGGTNYNEKFKSKATLTVDKSSSTAYMQLSSLTSEDSAIYYCARRNNYYASSPFAYWGQGTLVSVSA VL: DIVMTQTPASLSASVGETVTITCRASGNIHNYLAWYQQKQGKSPQLLVYNAKTLADGVPSRFSGSGSGTQYSLKINSLQPEDFGSYYCQHFWSTPFTFGSGTKLEIK please.
Reply: 1.02e+09 M⁻¹

Query: Kindly indicate its recorded Ka. Item: 12B1 (antibody, V domains shown) VH: EVKLEESGTELVKPGASVKLSCKASGYTFTSYWMHWVKQRPGQGLEWIGNINPTNGGTNYNEKFKSKATLTVDKSSRTAYMQLSSLTSGDSAVYYCARRDFITTSGFAYWGQGTLVTVSA VL: DIVMTQTTASLSTSVGETVTITCRASGNLHSYLTWYQQKQGKSPQLLVYNAKTLADGVPSRFSGSGSGTQYSLKIDSLQPEDFGSYYCQHFWTTPFTFGSGTKLEIK
Reply: 5.02e+09 M⁻¹

Query: // Input: 13H1 (antibody, V domains shown) VH: QVQLQQSGTELVKPGASVKLSCKASGHTFTSYWMHWVKQRPGQGLEWIGNINPSNGGTNYNEKFKSKATLTVDKSSSTAYMQLSSLTSEDSAVYYCARRGYYGSSSYWSFDVWGTGTTVTVSS VL: DIVMTQTPKSMSMSVGERVTLSCKASENVGTYVSWYQQKPEQSPKVLIYGASNRFTGVPDRFTGSGSATDFTLTISSVQTEDLADYHCGQSYSYPLTFGAGTKLELK . Output its Ka only.
Reply: 6.7e+09 M⁻¹
